Tested on: H727 cells
ASSAY NAME: Inhibition of KRas-mediated phosphorylation of ERK (Cisbio HTRF pERK), H727 cells
Format: cell-based
EXPERIMENTAL SETUP: Homo sapiens, NCI-H727, single point at 100 nM, 3 hrs compound incubation
Listing of recorded inhibition at 0.1 µM by entry.
Hi! Could you send only the number? It should be in %, unit omitted.

Need inhibition at 0.1 µM, item CCc1c(F)ccc2cc(O)cc(N3CCc4c(nc(OC[C@@]56CCCN5C[C@H](F)C6)nc4N4CCCn5nc(C(=O)N(C)C)c(Br)c5C4)C3)c12
85

Any idea what inhibition at 0.1 µM was measured for CCc1c(F)ccc2cc(O)cc(N3CCc4c(nc(OC[C@@]56CCCN5C[C@H](F)C6)nc4N4CCCn5nc(C(=O)N6CC[C@@H]7CC[C@H]6C7)cc5C4)C3)c12 ?
76

Return reported inhibition at 0.1 µM; argument: CCc1c(C(=O)N(C)C)nn2c1CN(c1nc(OC[C@@]34CCCN3C[C@H](F)C4)nc3c1CCN(c1cc(O)cc4ccc(F)c(CC)c14)C3)CCC2
76

Value lookup for inhibition at 0.1 µM; key = O=C1CC2(CCCN(c3nc(OCC45CCCN4CCC5)nc4c3CCN(c3cc(O)cc(Cl)c3C3CC3)C4)C2)N1 (stereo not shown)
-25

Now look at this entry.
Name the reported inhibition at 0.1 µM value associated with the compound CCc1c(F)ccc2cc(O)cc(N3CCc4c(nc(OC[C@@]56CCCN5C[C@H](F)C6)nc4N4CCCn5nc(C(=O)NC6CC6)cc5C4)C3)c12
79

---

# maps each entry to its IC50
SUBJECT OF TEST: KRas G12V (Homo sapiens, UniProt P01116, G12V)
Sequence (P01116 1-169 isoform P01116-2 G12V): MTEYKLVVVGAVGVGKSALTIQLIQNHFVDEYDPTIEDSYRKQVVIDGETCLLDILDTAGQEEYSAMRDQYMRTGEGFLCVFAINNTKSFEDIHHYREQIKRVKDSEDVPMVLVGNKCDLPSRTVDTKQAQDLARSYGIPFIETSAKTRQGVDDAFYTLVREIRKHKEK
ASSAY NAME: biochemical
EXPERIMENTAL SETUP: Binding to KRas (IC50 nM) G12V, TR-FRET displacement, KRas G12V
The reply should contain only the number, in nM.

Need IC50 of Cc1cc2[nH]ncc2c(N2CCc3c(nc(OCC45CCCN4CCC5)nc3N3CCCn4nc(C(=O)N(C)C)cc4C3)C2)c1C , thanks.
26

***
Would you kindly share the measured IC50 for CCc1cccc2cccc(N3CCc4c(nc(OCC5(CN(C)C)CC5)nc4N4CCOCC(CC)C4)C3)c12 (stereo not drawn) ?
1440

---

Here the recorded inhibition at 0.1 µM is given for each entry.
System: H358 cells
ASSAY NAME: Inhibition of KRas-mediated phosphorylation of ERK (Cisbio HTRF pERK), H358 cells
Format: cell-based
EXPERIMENTAL SETUP: Homo sapiens, NCI-H358, single point at 100 nM, 3 hrs compound incubation
Quick reminder: number only, in %, skip the unit.

Notebook entry, H358 cells assay: inhibition at 0.1 µM of CCc1c(F)ccc2cc(O)cc(N3CCc4c(nc(OC[C@@]56CCCN5C[C@H](F)C6)nc4N4CCCn5nc(C(=O)N6CCC7(CCN7)C6)cc5C4)C3)c12 (stereo partly drawn) [Example 278] = ?
12

---

# maps each entry to its IC50
System: H2009 cells
ASSAY NAME: Inhibition of KRas-mediated phosphorylation of ERK (Cisbio HTRF pERK), H2009 cells
Assay type: cell-based
EXPERIMENTAL SETUP: Homo sapiens, NCI-H2009, 3 hr compound incubation
Form entry: value (nM) — number only.

What value of IC50 has been recorded for this entry: C=C1CN2CCCC2(COc2nc3c(c(N4CCCC5(CCO5)C4)n2)CCN(c2cc(O)cc4ccc(F)c(CC)c24)C3)C1 (stereo not shown)
17

Request the reported IC50 associated with C=C1CN2CCCC2(COc2nc3c(c(N4CCCC5(CNS(=O)(=O)N5)C4)n2)CCN(c2cc(O)cc4ccc(F)c(CC)c24)C3)C1 (stereo not shown)
19

Item under review: C[C@@]1(O)CCCN(c2nc(OC[C@@]34CCCN3C[C@H](F)C4)nc3c2CCN(c2ccc(F)c4sc(N)c(C#N)c24)C3)C1 . Reported IC50?
424

Here is the next item to consider.
Can you look up the measured IC50 of C[C@@]1(O)COCCN(c2nc(OC[C@@]34CCCN3C[C@H](F)C4)nc3c2CCN(c2ccc(F)c4sc(N)c(C#N)c24)C3)C1 for me?
221

The measured values listed here are drawn from patent US20250368649A1.
